The reported measurements were obtained from ChEMBL document CHEMBL1909498.

- Test summary: Antioxidant activity assessed as superoxide radical scavenging activity after 20 mins by spectrophotometric analysis
- Assay type: functional
Parameter measured: EC50 (µM)
Expressed in µM, but write only the number.

Task: Any idea what its EC50 is? The compound is `COc1cc([C@H]2c3cc(O[C@@H]4O[C@H](CO)[C@@H](O)[C@H](O)[C@H]4O)c(OC)cc3C[C@@](O)(CO)[C@@H]2CO)ccc1O`
Output: 39.3

Task: What do we get for C/C=C1/[C@H](O[C@@H]2O[C@H](CO)[C@@H](O)[C@H](O)[C@H]2O)OC=C(C(=O)OC)[C@H]1CC(=O)OC[C@H]1O[C@@H](Oc2c(OC)cc(/C=C/CO)cc2OC)[C@H](O)[C@@H](O)[C@@H]1O [RETICULOSIDE] ?
Output: 64.1

Task: What do we get for `OC[C@H]1O[C@@H](OCCc2ccc(O)c(O)c2)[C@H](O)[C@@H](O)[C@@H]1O` ?
Output: 4.97

Task: What do we get for C/C=C1/[C@H](O[C@@H]2O[C@H](CO)[C@@H](O)[C@H](O)[C@H]2O)OC=C(C(=O)OC)[C@H]1CC(=O)OCCc1ccc(O)c(O)c1 [OLEUROPEIN] ?
Output: 2.57

Task: What do we get for `COc1cc([C@@H]2OC[C@@](O)(Cc3ccc(O[C@@H]4O[C@H](CO)[C@@H](O)[C@H](O)[C@H]4O)c(OC)c3)[C@H]2CO)ccc1O` ?
Output: 25.3

----------
- Test summary: Antioxidant activity assessed as superoxide radical scavenging activity after 20 mins by spectrophotometric analysis
- Format: functional
Parameter measured: pEC50
Lab note — pEC50 values are minus log10 of concentrations in M.

Task: Any idea what its pEC50 is? The compound is COc1cc(/C=C/CO[C@H]2O[C@@H](CO)[C@H](O)[C@@H](O)[C@@H]2O)cc(OC)c1O[C@@H]1O[C@H](CO)[C@@H](O)[C@H](O)[C@H]1O [ISOSYRINGINOSIDE]
Output: 4.85

Task: What do we get for `COc1cc(/C=C/CO)cc(OC)c1O[C@@H]1O[C@H](CO)[C@@H](O)[C@H](O)[C@H]1O` ?
Output: 4.15

Task: What do we get for C/C=C1/[C@H](O[C@@H]2O[C@H](CO)[C@@H](O)[C@H](O)[C@H]2O)OC=C(C(=O)OC)[C@H]1CC(=O)OC[C@H]1O[C@@H](O[C@@H]2OC=C(C(=O)OC)[C@@H](CC(=O)OCCc3ccc(O)c(O)c3)/C2=C\C)[C@H](O)[C@@H](O)[C@@H]1O [JASPOLYOSIDE] ?
Output: 5.30

Task: What do we get for `COc1cc([C@H]2OC[C@H]3[C@@H]2CO[C@@H]3c2ccc(O[C@@H]3O[C@H](CO)[C@@H](O)[C@H](O)[C@H]3O)c(OC)c2)ccc1O` ?
Output: 4.73

----------
- Test system: Radical scavenging activity
- Test summary: Antioxidant activity assessed as DPPH radical scavenging activity after 30 mins by spectrophotometric analysis
- Type: functional
Record form. Attribute: EC50. Fill in for each entry.

Task: Any idea what its EC50 is? The molecule is `OC[C@H]1O[C@@H](OCCc2ccc(O)c(O)c2)[C@H](O)[C@@H](O)[C@@H]1O`
Output: 33 µM

Task: What do we get for COc1cc(/C=C/C=O)ccc1O[C@@H]1O[C@H](CO)[C@@H](O)[C@H](O)[C@H]1O [CONIFERYALDEHYDE GLUCOSIDE] ?
Output: > 100 µM

Task: What do we get for C/C=C1/[C@H](O[C@@H]2O[C@H](CO)[C@@H](O)[C@H](O)[C@H]2O)OC=C(C(=O)OC)[C@H]1CC(=O)OC[C@H]1O[C@@H](O[C@@H]2OC=C(C(=O)OC)[C@@H](CC(=O)OCCc3ccc(O)c(O)c3)/C2=C\C)[C@H](O)[C@@H](O)[C@@H]1O [JASPOLYOSIDE] ?
Output: > 100 µM

Task: What do we get for COc1cc(C[C@@H]2CO[C@@H](c3cc(OC)c(O)c(OC)c3)[C@@H]2CO)ccc1O[C@@H]1O[C@H](CO)[C@@H](O)[C@H](O)[C@H]1O [ARMANDISIDE] ?
Output: > 100 µM

Task: What do we get for `COc1cc(/C=C/CO)cc(OC)c1O[C@@H]1O[C@H](CO)[C@@H](O)[C@H](O)[C@H]1O` ?
Output: > 100 µM

Task: What do we get for `COc1cc(C[C@]2(O)CO[C@@H](c3ccc(O[C@H]4O[C@@H](CO)[C@H](O)[C@@H](O)[C@@H]4O)c(OC)c3)[C@@H]2CO)ccc1O` ?
Output: > 100 µM

Task: What do we get for C/C=C1/[C@H](O[C@@H]2O[C@H](CO)[C@@H](O)[C@H](O)[C@H]2O)OC=C(C(=O)OC)[C@H]1CC(=O)OC[C@H]1O[C@@H](Oc2c(OC)cc(/C=C/CO)cc2OC)[C@H](O)[C@@H](O)[C@@H]1O [RETICULOSIDE] ?
Output: > 100 µM

Task: What do we get for `COc1cc([C@H]2OC[C@H]3[C@@H]2CO[C@@H]3c2ccc(O[C@@H]3O[C@H](CO)[C@@H](O)[C@H](O)[C@H]3O)c(OC)c2)ccc1O` ?
Output: > 100 µM

Task: What do we get for COc1cc(/C=C/CO[C@H]2O[C@@H](CO)[C@H](O)[C@@H](O)[C@@H]2O)cc(OC)c1O[C@@H]1O[C@H](CO)[C@@H](O)[C@H](O)[C@H]1O [ISOSYRINGINOSIDE] ?
Output: > 100 µM

Task: What do we get for COc1cc(/C=C/C=O)cc(OC)c1O[C@@H]1O[C@H](CO)[C@@H](O)[C@H](O)[C@H]1O [SINAPALDEHYDE GLUCOSIDE] ?
Output: > 100 µM

Task: What do we get for `COc1cc([C@H]2OC[C@H]3[C@@H]2CO[C@@H]3c2cc(OC)c(O[C@@H]3O[C@H](CO)[C@@H](O)[C@H](O)[C@H]3O)c(OC)c2)cc(OC)c1O` ?
Output: > 100 µM

----------
- Test summary: Antioxidant activity assessed as superoxide radical scavenging activity after 20 mins by spectrophotometric analysis
- Type: functional
Record form. Attribute: EC50. Fill in for each entry.

Task: Any idea what its EC50 is? The molecule is COc1cc(/C=C/C=O)cc(OC)c1O[C@@H]1O[C@H](CO)[C@@H](O)[C@H](O)[C@H]1O [SINAPALDEHYDE GLUCOSIDE]
Output: > 100 µM

Task: What do we get for COc1cc(/C=C/C=O)ccc1O[C@@H]1O[C@H](CO)[C@@H](O)[C@H](O)[C@H]1O [CONIFERYALDEHYDE GLUCOSIDE] ?
Output: > 100 µM

Task: What do we get for `COc1cc([C@H]2OC[C@H]3[C@@H]2CO[C@@H]3c2cc(OC)c(O[C@@H]3O[C@H](CO)[C@@H](O)[C@H](O)[C@H]3O)c(OC)c2)cc(OC)c1O` ?
Output: > 100 µM
